assay-metric: melting point

>  <compound>
CCCC1C=Cc2c3c(c4oc(=O)c(F)c(CC)c4c2O1)C(=O)CC(C)O3 (centres unmarked) [Example 39]

>  <assay-metric>
melting point

>  <reported>
151 to 153 °C

$$$$
>  <compound>
CCCc1cc(=O)oc2c3c(c4c(c12)OC(C)(C)C=C4)OC(CNS(=O)(=O)c1ccc(NC(C)=O)cc1)CC3=O (centres unmarked) [Example 61]

>  <assay-metric>
melting point

>  <reported>
127 to 128.5 °C

$$$$
>  <compound>
CC1CC(=O)c2c(c3c(c4c(-c5cc(F)c(Cl)nc5Cl)cc(=O)oc24)OC(C)(C)C=C3)O1 (centres unmarked) [Example 25]

>  <assay-metric>
melting point

>  <reported>
158 to 160 °C

$$$$
>  <compound>
CCc1cc(=O)oc2c3c(c4c(c12)OC(C)C=C4)OC(C)CC3=O (centres unmarked) [Example 79]

>  <assay-metric>
melting point

>  <reported>
133 to 134 °C

$$$$
>  <compound>
CCc1cc(=O)oc2c3c(c4c(c12)OC(c1ccccc1)C=C4)OC(C)CC3=O (centres unmarked) [Example 45]

>  <assay-metric>
melting point

>  <reported>
126 to 128 °C

$$$$

Please state melting point for every compound in the list that follows.
1. CCCCC1C=Cc2c3c(c4oc(=O)cc(CC)c4c2O1)C(=O)CC(C)O3 (centres unmarked) [Example 46]
2. CCCCC1C=Cc2c3c(c4oc(=O)cc(CCC)c4c2O1)C(=O)C(C)CO3 (centres unmarked) [Example 77]
3. CCCc1cc(=O)oc2c3c(c4c(c12)OCC(C)C4OCC)OC(C)CC3=O (centres unmarked) [Example 95]

1: 119 to 121 °C; 2: 144 to 145 °C; 3: 198 to 201 °C

====

test system: Mycobacterium tuberculosis H37Rv (ATCC 27294); test: Microplate Alamar Blue Assay (MABA) in BACTEC 12B medium (TAACF screen); format: cell-based; details: MABA, H37Rv, read-out: IC50
For each of the compounds below, state its IC50.
One number for each entry, in µg/mL.

Would you please look over these solved cases?
>  <compound>
CC1CC(=O)c2c(c3c(c4c(-c5ccccc5)cc(=O)oc24)OC(C)(C)C=C3)O1 (centres unmarked) [Example 21]

>  <IC50 / µg/mL>
16.6

$$$$
>  <compound>
CCc1c(F)c(=O)oc2c3c(c4c(c12)OCC(C)=C4)OC(C)CC3=O (centres unmarked) [Example 93]

>  <IC50 / µg/mL>
76.2

$$$$
>  <compound>
CCCc1cc(=O)oc2c3c(cc(O)c12)O[C@@H]1CCCC[C@@H]1C3=O [Example 5a-19]

>  <IC50 / µg/mL>
83.1

$$$$
>  <compound>
CC1CC(=O)c2c(c3c(c4c(-c5cc(F)c(Cl)nc5Cl)cc(=O)oc24)OC(C)(C)C=C3)O1 (centres unmarked) [Example 25]

>  <IC50 / µg/mL>
2.86

$$$$
>  <compound>
CCCC1C=Cc2c3c(c4oc(=O)c(F)c(CC)c4c2O1)C(=O)CC(C)O3 (centres unmarked) [Example 39]

>  <IC50 / µg/mL>
5.09

$$$$
>  <compound>
CC1CC(=O)c2c(cc3oc(=O)cc(-c4ccccc4)c3c2O)O1 (centres unmarked) [Example 5b-21]

>  <IC50 / µg/mL>
14.9

$$$$
>  <compound>
CCCc1cc(=O)oc2c3c(c4c(c12)OC(CC)C=C4)OC(C)CC3=O (centres unmarked) [Example 52]

>  <IC50 / µg/mL>
11.8

$$$$
>  <compound>
CCCCc1cc(=O)oc2c3c(c4c(c12)OC(CCC)C=C4)OC(C)CC3=O (centres unmarked) [Example 37]

>  <IC50 / µg/mL>
5.33

$$$$

Return reported IC50 values for all items listed beneath this line.
1. CCCc1cc(=O)oc2c3c(c4c(c12)OCC(C)C4OCC)OC(C)CC3=O (centres unmarked) [Example 95]
2. CCCc1cc(=O)oc2c3c(c4c(c12)OC(C)(C)C=C4)OC(CNC(=O)Nc1ccc(F)cc1)CC3=O (centres unmarked) [Example 60]
3. Cc1c(Cc2ccccc2)c(=O)oc2c3c(c4c(c12)OC(C)(C)C=C4)OC(C)CC3=O (centres unmarked) [Example 4]
4. Cc1c(Cl)c(=O)oc2c3c(c4c(c12)OC(C)(C)C=C4)OC(C)CC3=O (centres unmarked) [Example 3]

[20.1, 32.5, 7.52, 33.4]

CCCc1cc(=O)oc2c3c(c4c(c12)OC(c1ccccc1)C=C4)OC(C)CC3=O (centres unmarked) [Example 41] has a reported IC50 of 2.92

====

Exercise: for every item that follows, state its recorded melting point.

>  <compound>
CC1CC(=O)c2c(c3c(c4c(CCC(F)(F)F)cc(=O)oc24)OC(c2ccccc2)C=C3)O1 (centres unmarked)

>  <reported>
171 to 173 °C

$$$$

Look up melting point for the entries below, preserving their order.
1. CCCc1c(Cl)c(=O)oc2c3c(c4c(c12)OC(CCC)C=C4)OC(C)CC3=O (centres unmarked)
2. CCc1c(F)c(=O)oc2c3c(c4c(c12)OCC(C)=C4)OC(C)CC3=O (centres unmarked)
3. CCCc1cc(=O)oc2c3c(c4c(c12)OC(C)(C)C=C4)OC(CN)CC3=O (centres unmarked)

140 to 142 °C
118 to 120 °C
> 220 °C (dec.)

// for each compound below, give its melting point
1. CCCc1cc(=O)oc2c3c(c4c(c12)OC(c1ccccc1[N+](=O)[O-])CC4OCC)OC(C)CC3=O (centres unmarked)
2. CCCc1c(F)c(=O)oc2c3c(c4c(c12)OC(C)C=C4)OC(C)CC3=O (centres unmarked)
3. CCCc1cc(=O)oc2c3c(c4c(c12)OC(c1ccccc1[N+](=O)[O-])C=C4)OC(C)CC3=O (centres unmarked)

["237 to 240 °C", "150 to 153 °C", "216 to 218 °C"]

====

assay-metric: melting point

// known answers, use as guide
>  <compound>
CCOC1c2c3c(c4oc(=O)cc(CC)c4c2OCC1C)C(=O)CC(C)O3 (centres unmarked)

>  <assay-metric>
melting point

>  <reported>
174 to 176 °C

$$$$
>  <compound>
C/C=C/C1C=Cc2c3c(c4oc(=O)cc(CCC(F)(F)F)c4c2O1)C(=O)CC(C)O3 (centres unmarked)

>  <assay-metric>
melting point

>  <reported>
147 to 149 °C

$$$$
>  <compound>
CCCc1c(F)c(=O)oc2c3c(c4c(c12)OC(CC)C=C4)OC(C)CC3=O (centres unmarked)

>  <assay-metric>
melting point

>  <reported>
147 to 149 °C

$$$$
>  <compound>
CCCc1c(Cl)c(=O)oc2c3c(c4c(c12)OC(CC)C=C4)OC(C)CC3=O (centres unmarked)

>  <assay-metric>
melting point

>  <reported>
145 to 147 °C

$$$$

Query CCCc1c(F)c(=O)oc2c3c(c4c(c12)OCC(C)=C4)OC(C)CC3=O (centres unmarked) yields melting point of 122 to 124 °C

====

Kindly supply the reported melting point values for the records listed here.

Worked cases, melting point given:
>  <compound>
CCCc1cc(=O)oc2c3c(c4c(c12)OC(C)(C)C=C4)OC(CNS(=O)(=O)c1ccc(F)cc1)CC3=O (stereo not shown)

>  <melting point>
129 to 131 °C

$$$$
>  <compound>
CC1CC(=O)c2c(c3c(c4c5c(c(=O)oc24)CCC5)OC(C)(C)C=C3)O1 (stereo not shown)

>  <melting point>
108 to 109 °C

$$$$
>  <compound>
CCCCC1C=Cc2c3c(c4oc(=O)c(Cl)c(CCC)c4c2O1)C(=O)CC(C)O3 (stereo not shown)

>  <melting point>
146 to 149 °C

$$$$

Let's switch to this compound now.
melting point reading for C/C=C/C1C=Cc2c3c(c4oc(=O)cc(CCC)c4c2O1)C(=O)CC(C)O3 (stereo not shown) : 136 to 138 °C

====

tested on: HIV-1; assay: Inhibitory activity against HIV-1 (literature method, Chen et al. J Virol 1997); conditions: Human immunodeficiency virus 1, read-out: Anti-HIV (%, 1.0 μM)
Consider the following molecules; for each one, report its inhibition at 1 µM.
Give bare numbers, in %.

Some solved entries appear below for comparison.
>  <molecule>
COc1cc(-c2cc(=O)oc3c4c(c5c(c23)OC(C)(C)C=C5)OC(C)CC4=O)cc(OC)c1OC (stereo not shown) [Example 24]

>  <inhibition at 1 µM [%]>
58

$$$$
>  <molecule>
CCCCCC1CC(=O)c2c(c3c(c4c(CCC)cc(=O)oc24)OC(C)(C)C=C3)O1 (stereo not shown) [Example 15]

>  <inhibition at 1 µM [%]>
46.4

$$$$
>  <molecule>
C/C=C/C1C=Cc2c3c(c4oc(=O)cc(CC)c4c2O1)C(=O)CC(C)O3 (stereo not shown) [Example 87]

>  <inhibition at 1 µM [%]>
56.4

$$$$

Here is the next item to consider.
In plain terms, C/C=C/C1C=Cc2c3c(c4oc(=O)c(Cl)c(CCC)c4c2O1)C(=O)CC(C)O3 (stereo not shown) [Example 86] has a documented inhibition at 1 µM of 57.3
